I'd be grateful if you could share measured pIC50 for these entries.
System: GP2D
Test: Inhibition of proliferation of KRAS G12D mutant tumor cell line GP2D (CellTiter-Glo)
Conditions: Homo sapiens, GP2d, 72 h, read-out: GP2D IC50
One number for each entry, as −log10 of the molar value.

Worked set:
- [2H]C([2H])([2H])[C@@H]1Oc2nc(-c3cc(O)cc4ccc(F)c(C#C)c34)c(F)c3nc(OCC4(CN5CCC(=C(F)F)CC5)CC4)nc(c23)N2C[C@H]3CC[C@H](N3)[C@@H]12 [Example 161]: 9.62
- C#Cc1c(F)ccc2cc(O)cc(-c3nc4c5c(nc(OCC6(CN7CCC(=C(F)F)CC7)CC6)nc5c3F)N3C[C@H]5CC[C@H](N5)[C@H]3CO4)c12 [Example 1-1]: 8.92
- C#Cc1c(F)ccc2cc(O)cc(-c3nc4c5c(nc(OCC6(CN7CCCC(=C(F)F)CC7)CC6)nc5c3F)N3C[C@H]5CC[C@H](N5)[C@H]3[C@H](CC)O4)c12 [Example 140]: 9.10
- [2H]C([2H])([2H])[C@@H]1Oc2nc(-c3cc(O)cc4ccc(F)c(C#C)c34)c(F)c3nc(OCC4(CN5CCC(=NOC)CC5)CC4)nc(c23)N2C[C@H]3CC[C@H](N3)[C@@H]12 [Example 338]: 9.47

Proceeding to the next molecule to report its pIC50.
Query: // query pIC50 value for entry [2H]C([2H])(Oc1nc2c3c(nc(-c4cc(O)cc5ccc(F)c(C#C)c45)c(F)c3n1)O[C@@H](C)[C@@H]1[C@@H]3CC[C@H](CN21)N3)C1(C([2H])([2H])N2CCC(=C(F)F)CC2)CC1 [Example 289]
Result: 9.55
